Assay: soluble fraction after stress (log2 fold change); higher = more stays soluble; pooled small domains, quantitative proteomics;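 note: 20 min heating vs room temperature control held 20 min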
Settings: stress: 75 degC
Measured soluble fraction (log2) of individual entries

>  <chain sequence>
HMSYLDTLPGRRVAAQGAITGDAGTLAVDGDTWSARVEPGAPDVAPGDEVTVLRIDGATLVVRPLP

>  <soluble fraction (log2)>
0.0276

$$$$
>  <chain sequence>
HMASMEDILAEAKTKFQEGDLFKSVNEGIQGTHKLTLPLRIKESRIVDASGAAVYREGIWATVDK

>  <soluble fraction (log2)>
0.166

$$$$
>  <chain sequence>
HMPSLNDRPDDVLYLFSYFLQSFSHRQVSLPKILKKALIQHDWWGNIRELHSVALRYYIFGDTLNGAYDSL

>  <soluble fraction (log2)>
-0.99

$$$$
>  <chain sequence>
HMDKSPMIGTAEYEGVLYWRQTKDNGATWEWITDKNGDKMPVSGPAPAVGIDKDGYWTVNGESTGVLAKD

>  <soluble fraction (log2)>
0.225

$$$$

* * *

Measured soluble fraction (log2) of individual entries
Assay: soluble fraction after stress (log2 fold change); higher = more stays soluble; pooled small domains, quantitative proteomics
Conditions: stress: 75 degC

>  <chain sequence>
HMDFKKKIIESWADIAETLRGLTVDSNISDWTTKQKNAYETLADKAELAGLSIADLNSILVELGYM

>  <soluble fraction (log2)>
-0.119

$$$$
>  <chain sequence>
HMQDPVWVDWLGENDWFQKDPKRRGLANGYSEILRAEQPELVGRPFLDEVTRRVQADFPELFG

>  <soluble fraction (log2)>
-0.944

$$$$
>  <chain sequence>
HMSKIVPVAYSQFLKDVKNGNVSQVEIRGNNIKGINNNGSSFSTYAPNDLSLIDKLEKSNVEIIVMPLE

>  <soluble fraction (log2)>
-0.368

$$$$
>  <chain sequence>
HMIPDLPAVGVNVHKERRRQQLSLDALAAGSGVSKAMLSQIESGKVNPTVATMWKIAHALGVDFELLLKGE

>  <soluble fraction (log2)>
-0.982

$$$$
>  <chain sequence>
HMDSGINVWASAEGLTITADKDTTVYVYDIYGRTIHTSEVKAGTSDIAINTKGIVIVKANGYTKKII

>  <soluble fraction (log2)>
-1.77

$$$$
>  <chain sequence>
HMQDVWEPFLAKGYVFADGMLTKLIHKRGDVYKTQEIGSDKIIYVIKDGDTFAHGKTVKAAMLDLAFKKS

>  <soluble fraction (log2)>
-1.5

$$$$
>  <chain sequence>
HMKKAITMGDIITVKELSEKIGIQVAEIIKKLMGLGILATINKELDYDTANVIASEFHIELERK

>  <soluble fraction (log2)>
0.117

$$$$
>  <chain sequence>
HMKKVIKIEENVSLQKLAALMSLKVTDVLMRLLSMGMSGVNINSTIDADTAKILASEFGWTVED

>  <soluble fraction (log2)>
-0.529

$$$$

* * *

Test: soluble fraction after stress (log2 fold change); higher = more stays soluble; pooled small domains, quantitative proteomics
Conditions: stress: 75 degC
Rule: soluble fraction (log2) under -0.4 gives -1, otherwise 1.

>  <chain sequence>
HMSTYTETETAYLKAYSAAGVDGKISDSERGILNMTAEALGITVERTTELEAMFNLTVEEEA

>  <classification>
1

$$$$
>  <chain sequence>
HMPEPMKLSDLPPELWQRVSDLFDEVIDLPETDRIPYIRNLWGSEPLVAKELMALLVAAANVD

>  <classification>
-1

$$$$
>  <chain sequence>
HMNTGLSEREHEIAQLVLQGRTYAEIGAELFISPRTAEHHIGQIRRRLAATSRSDLLAKLRVAMNTTEGAG

>  <classification>
-1

$$$$
>  <chain sequence>
HMSEPTVVAINETLTSERLDRYLTTQLPHISRGGIQRLLRKGNILVDGKPAKPTQHPVAGQTVEITWPIPK

>  <classification>
-1

$$$$
>  <chain sequence>
HMGEVYPSDIVEKMKQANLHILEGTLYPLLTRLKNAGLLNYRWVESVTGPPRKYFVMTEEGKAAF

>  <classification>
1

$$$$
>  <chain sequence>
HMRRLGTTEIAGILRREISQGILIAKERLPSERSLADTYGVARGTVRQALNLLAREGLVQIRRSSGAYVTF

>  <classification>
-1

$$$$
>  <chain sequence>
HMIRQGTKQALLIEMLQRPEGASITEIVEATSWQAHTARGAISGALKKKLGLPITSEKHPERGTVYKL

>  <classification>
-1

$$$$
>  <chain sequence>
HMPQPEIEIAAVVPYSAGALLSRIHDDGELLAPVEYRGEGVFVHARVPADIEAAMRRGGMLSPAET

>  <classification>
1

$$$$
>  <chain sequence>
HMAQLVVTVDKLNKRTAIPVTLSDKSSNDSVVEKGFRFEGFPFVNTATNGKKWYKDREGFFYWAGGLMEEA

>  <classification>
1

$$$$
>  <chain sequence>
HMGTYYTEIIAQLKKEIANGTWKLGERLPGELALAKQFNVSRSSIREALKALAYAGIVESKPGRGTFLLHV

>  <classification>
-1

$$$$
>  <chain sequence>
HMVFQTAAEKAYEIISKKIMKGEYEPGMRLVRRQLAQELGVSPIPILEAMKRLEQDGLIEYKAHWGSIVTI

>  <classification>
-1

$$$$
>  <chain sequence>
HMQKFINQEHEKAYNLMLEKDYQQALKIFDDLIYLFPNEANLLSDRGVIFIHLNKKEAALQDFDQAVF

>  <classification>
-1

$$$$
>  <chain sequence>
HMDVAWDAIKAKLKEVVDAEDKAHPLNDDQIVKALGESGITIARRTIAKYRDLLGIPPARKRKA

>  <classification>
1

$$$$
>  <chain sequence>
HMSHGYVEMQAKDDQVLLAALKNHPWFEKVSIDEETGLTKAILTQPIEAEELNSMLFEKGIVLSHLVKRK

>  <classification>
1

$$$$
>  <chain sequence>
HMPSQEQSDKNAAMAFLPVIVKNALNGKGLKISDDWKAAVNTALAQYPLVNKFFNADSPEVTELVMGL

>  <classification>
1

$$$$
>  <chain sequence>
HMTEVPSLSSLKIGDLIFYRNNKGAIAHSAIITSFYNGRPFISQHTFNALNITYVKDWASKMHFIKIW

>  <classification>
1

$$$$
>  <chain sequence>
HMGIKYTNQRVEILNFLKDNLSHPTVDDVYEGVKKKLTRISKATVYQNLKFLASKGLIQEVNIKGVSRFEP

>  <classification>
-1

$$$$
>  <chain sequence>
HMKDLTAIKGVGEFFAKKLSQAGYQSITNLTDVNAKRLQADTGIPLPIAARIIKEAQSLIAET

>  <classification>
1

$$$$
>  <chain sequence>
HMGDAPLITVDKRTIKVNGAKAQIQVYDTTGRLVKNVSPAGKLTLIEMAKPGIFIVHTQSMSFKVVL

>  <classification>
1

$$$$
>  <chain sequence>
HMIPENKRVLISLTYIYGIGKKISQDILEKANIDSSIKTSQLTDDDVARIRQLIENDYLVEGELRV

>  <classification>
1

$$$$
>  <chain sequence>
HMYPNEFPRKVMSVFESSGLEMFRTIEMLLAIPEYETPLPYGSGVSRSDIFVLAKSAGNLVSITV

>  <classification>
1

$$$$
>  <chain sequence>
HMANPRLEYFLSNITPDWNEFSPELKNQLLIENADPYKLEQYILQVSPDMYIEEQNAPGTVRQMAGDITG

>  <classification>
1

$$$$
>  <chain sequence>
HMLDEKAVRQYLLNTLENSEIKMDRQAIDLFLRLTDLDLSKMMRELQKILLYGQEQEVITVKEIEQ

>  <classification>
-1

$$$$
>  <chain sequence>
HMKNIMRQWIELEPDQGKIRSKLYSLDRVVEETTNEVGMIKLLLEIDEKELNNLVSHNDIRLV

>  <classification>
-1

$$$$
>  <chain sequence>
HMNKQEFLNTLRIIFKKANVLDVESIIDVYEEHFAVGYEKGLNDEQIIKSLGTPKEIYTSYVEAGI

>  <classification>
-1

$$$$
>  <chain sequence>
HMGELDFYEEMRDDYLTGKIWNVGEIVEAKGMIGEIVRKGTNYISFVTDDNKVHKAWLHEIKL

>  <classification>
-1

$$$$
>  <chain sequence>
HMANSDEEVLNKISTKAPTFNELINKIKEFDDTKEINDIWLDVYRYYITDEEYKEIAKKVITGLTYTNQ

>  <classification>
1

$$$$
>  <chain sequence>
HMEVMYFIYQQEEPMRIDKFLVNEMEDFSRNSIQIYIKDNHVLVNDKVVKANYILKKGDAISITIPDPI

>  <classification>
-1

$$$$
>  <chain sequence>
HMAIDLSLIPGNLLRELHGAVEDGDMYRIRELIRSISAVDEKVGKELLLLAERYDYERLLELVND

>  <classification>
-1

$$$$
>  <chain sequence>
HMNDVGKVLNQLGERDRMILLLTYWDELPLKEAARILEVSENNAKIILFRARSRFASLWSAGS

>  <classification>
-1

$$$$
>  <chain sequence>
HMDPERLDQLQNPDPAVRREAIIALGRSKDLAALPELAKVYKNDPVPELRELARQAGRYIQQENRP

>  <classification>
1

$$$$
>  <chain sequence>
HMVGAEDISKPMNLGALMRTAHAFGASFFFTINAHPKVRHAYNSDTSRSFDHMPYYPWDTMEE

>  <classification>
1

$$$$
>  <chain sequence>
HMNRPYVELFSGLGQEEAQQIVQKLQEDEVDYKFSGDSTILVKEDVVDQTKATLVQEGYPKS

>  <classification>
1

$$$$
